TARGET SYSTEM: Mitogen-activated protein kinase kinase kinase 5 (Homo sapiens, UniProt Q99683)
Sequence (Q99683 whole entry): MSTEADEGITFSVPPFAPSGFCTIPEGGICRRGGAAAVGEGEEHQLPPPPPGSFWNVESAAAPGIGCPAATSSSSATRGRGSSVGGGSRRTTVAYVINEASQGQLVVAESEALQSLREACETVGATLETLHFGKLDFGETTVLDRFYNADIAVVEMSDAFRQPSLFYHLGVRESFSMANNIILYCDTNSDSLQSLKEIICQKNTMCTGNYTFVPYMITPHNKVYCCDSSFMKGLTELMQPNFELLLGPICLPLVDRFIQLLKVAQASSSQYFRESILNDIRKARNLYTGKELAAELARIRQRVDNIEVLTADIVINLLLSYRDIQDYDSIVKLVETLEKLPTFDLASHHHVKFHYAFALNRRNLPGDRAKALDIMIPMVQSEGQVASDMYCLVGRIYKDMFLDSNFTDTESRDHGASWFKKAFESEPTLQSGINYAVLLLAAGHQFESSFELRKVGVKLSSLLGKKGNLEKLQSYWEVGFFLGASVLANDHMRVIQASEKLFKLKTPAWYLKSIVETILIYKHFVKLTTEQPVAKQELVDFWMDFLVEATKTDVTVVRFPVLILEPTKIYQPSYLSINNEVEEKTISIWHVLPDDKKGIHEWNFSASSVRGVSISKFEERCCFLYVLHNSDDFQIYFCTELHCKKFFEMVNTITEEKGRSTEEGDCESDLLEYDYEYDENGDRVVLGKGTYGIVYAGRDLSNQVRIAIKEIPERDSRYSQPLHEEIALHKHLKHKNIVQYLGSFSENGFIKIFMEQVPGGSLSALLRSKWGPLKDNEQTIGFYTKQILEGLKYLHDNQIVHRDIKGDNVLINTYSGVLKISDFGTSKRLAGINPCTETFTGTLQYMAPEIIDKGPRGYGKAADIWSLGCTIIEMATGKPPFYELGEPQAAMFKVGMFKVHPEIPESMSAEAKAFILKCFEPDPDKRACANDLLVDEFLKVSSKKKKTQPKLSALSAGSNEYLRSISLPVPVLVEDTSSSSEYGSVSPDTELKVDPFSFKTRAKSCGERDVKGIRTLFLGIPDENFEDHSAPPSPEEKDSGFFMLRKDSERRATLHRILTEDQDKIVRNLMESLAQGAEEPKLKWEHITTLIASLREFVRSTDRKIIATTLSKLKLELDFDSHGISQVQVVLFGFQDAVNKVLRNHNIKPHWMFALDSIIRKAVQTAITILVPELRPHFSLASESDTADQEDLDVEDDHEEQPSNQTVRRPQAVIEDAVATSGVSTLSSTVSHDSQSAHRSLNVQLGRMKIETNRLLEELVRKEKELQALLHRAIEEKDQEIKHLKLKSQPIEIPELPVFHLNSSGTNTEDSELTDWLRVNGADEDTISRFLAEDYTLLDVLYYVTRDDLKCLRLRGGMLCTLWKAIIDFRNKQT
EXPERIMENTAL DETAILS: Inhibition of ASK1 (unknown origin) incubated for 0.5 to 5 hrs by TR-FRET assay
pIC50: −log10 of the molar value.
MEASURE: pIC50

Below, each entry is followed by its recorded pIC50 result.
# SMILES TEXT, RESULT
measured = [
    ("Cc1cc(F)c(C(=O)Nc2cccc(-c3nnc4n3CCNC4)n2)cc1-n1cnc(C2CC2)c1", 7.32),
    ("Cc1cc(F)c(C(=O)Nc2cccc(-c3nnc4ncncn34)n2)cc1-n1cnc(C2CC2)c1", 7.85),
    ("Cc1cc(F)c(C(=O)Nc2cccc(-c3nnc4n3CCS(=O)(=O)C4)n2)cc1-n1cnc(C2CC2)c1", 8.00),
    ("Cc1cc(F)c(C(=O)Nc2cccc(-c3nnc4sccn34)n2)cc1-n1cnc(C2CC2)c1", 8.39),
    ("Cc1cc(F)c(C(=O)Nc2cccc(-c3nnc4ccccn34)n2)cc1-n1cnc(C2CC2)c1", 8.11),
    ("Cc1cc2c(cc1-n1cnc(C3CC3)c1)C(=O)N(c1cccc(-c3nncn3C(C)C)n1)C2", 8.41),
    ("CC(C)n1nnnc1-c1cccc(N2C(=O)c3cc(-n4cnc(C5CC5)c4)ccc3C2(C)C)n1", 8.41),
    ("Cc1cc(F)c(C(=O)Nc2cccc(-c3nnc4n3CCOC4)n2)cc1-n1cnc(C2CC2)c1", 8.21),
]

[I] Cc1cc(F)c(C(=O)Nc2cccc(-c3nnc4[nH]ccn34)n2)cc1-n1cnc(C2CC2)c1
[II] Cc1cc(F)c(C(=O)Nc2cccc(-c3nnc4n3CCCC4)n2)cc1-n1cnc(C2CC2)c1
Query: // max by pIC50 over [ I , II ] In your reply, give the label of the chosen option.
Reply: I
(I: 8.17, II: 7.74)
